- TESTED_TARGET: Glucose-dependent insulinotropic receptor (Mus musculus)
- Sequence (whole entry): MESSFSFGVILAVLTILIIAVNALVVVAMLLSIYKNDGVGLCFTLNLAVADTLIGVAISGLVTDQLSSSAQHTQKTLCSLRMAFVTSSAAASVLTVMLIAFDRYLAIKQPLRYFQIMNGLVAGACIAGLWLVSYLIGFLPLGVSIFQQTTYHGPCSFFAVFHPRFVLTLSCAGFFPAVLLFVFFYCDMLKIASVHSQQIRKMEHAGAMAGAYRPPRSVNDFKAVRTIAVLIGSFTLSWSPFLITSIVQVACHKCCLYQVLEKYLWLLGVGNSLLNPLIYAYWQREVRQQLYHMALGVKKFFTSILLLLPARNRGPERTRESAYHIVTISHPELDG
- PROTOCOL_SUMMARY: Agonist activity at mouse GPR119 overexpressed in CHO cells assessed as increase in cellular cAMP production by HTRF method relative to AR231453
- Type: functional, cell-based
OUTCOME_MEASURE: Efficacy

MOLECULE: COC(=O)C1(Cc2ccccc2)COc2cnc3c(-c4ccc(C(F)(F)F)cc4)cnn3c21 (racemic)
VALUE_MEASURED: 76%
//
MOLECULE: COC(=O)C1(Cc2ccccc2)OCc2cnc3c(-c4ccc(C(F)(F)F)cc4)cnn3c21 (racemic)
VALUE_MEASURED: 78%
//
MOLECULE: CCOC(=O)[C@](C)(Cc1ccccc1)c1c(Cl)cnc2c(-c3ccc(C(F)(F)F)cc3)cnn12
VALUE_MEASURED: 73%
//
MOLECULE: CCOC(=O)[C@@]1(Cc2ccccc2)CNc2cnc3c(-c4ccc(C(F)(F)F)cc4)cnn3c21
VALUE_MEASURED: 80%
//
MOLECULE: COC(=O)[C@@]1(Cc2cccc(F)c2)N=Cc2cnc3c(-c4ccc(C(F)(F)F)cc4)cnn3c21
VALUE_MEASURED: 80%
//
MOLECULE: CCOC(=O)[C@@]1(Cc2ccccc2)CCc2cnc3c(-c4ccc(Cl)cc4)cnn3c21
VALUE_MEASURED: 78%
//
MOLECULE: CCOC(=O)[C@](C)(Cc1ccccc1)c1ccnc2c(-c3ccc(C(F)(F)F)cc3)c(C)nn12
VALUE_MEASURED: 72%
//
MOLECULE: CCOC(=O)[C@@]1(Cc2ccccc2)CCc2cnc3c(-c4ccc(C(F)(F)F)cc4)cnn3c21
VALUE_MEASURED: 80%
//
MOLECULE: COC(=O)[C@@]1(Cc2cccc(F)c2)CCc2cnc3c(-c4ccc(C(F)(F)F)cc4)cnn3c21
VALUE_MEASURED: 81%
//
MOLECULE: CCOC(=O)[C@@]1(Cc2ccccc2)CCCc2cnc3c(-c4ccc(C(F)(F)F)cc4)cnn3c21
VALUE_MEASURED: 59%
//
MOLECULE: COC(=O)[C@@]1(Cc2cccc(F)c2)NCc2cnc3c(-c4ccc(C(F)(F)F)cc4)cnn3c21
VALUE_MEASURED: 88%
